Test system: TTR
assay.details: TTR editing in primary human hepatocytes transfected with Spy Cas9 protein and sgRNAs (Table 12)
Assay type: cell-based
assay.setup: primary human hepatocytes transfected with Spy Cas9 protein (RNP) and sgRNAs
Strand notation (5' to 3'): a small letter for the sugar, then the base; units joined by * are phosphorothioate-linked, units joined directly phosphodiester-linked; [ ] holds rarer units or linkages, { } end groups; capitals alone tell only the bases. m = 2'-O-methyl; r = 2'-OH (RNA)
measurement.kind: Avg % Edit (%)
Write the number in % without appending the unit.

Give me measured Avg % Edit, please, for this molecule: G000480: TTR sgRNA modified sequence, Human, SEQ ID No. 87; guide sequence of CR003353 (nucleic acid) guide: mA*mA*mA*rGrGrCrUrGrCrUrGrArUrGrArCrArCrCrUrGrUrUrUrUrArGrAmGmCmUmAmGmAmAmAmUmAmGmCrArArGrUrUrArArArArUrArArGrGrCrUrArGrUrCrCrGrUrUrArUrCrAmAmCmUmUmGmAmAmAmAmAmGmUmGmGmCmAmCmCmGmAmGmUmCmGmGmUmGmCmU*mU*mU*mU
81.80
